Target: T1, Puf4 RNA-binding domain (Saccharomyces cerevisiae, UniProt P25339 537-888)
T1 sequence: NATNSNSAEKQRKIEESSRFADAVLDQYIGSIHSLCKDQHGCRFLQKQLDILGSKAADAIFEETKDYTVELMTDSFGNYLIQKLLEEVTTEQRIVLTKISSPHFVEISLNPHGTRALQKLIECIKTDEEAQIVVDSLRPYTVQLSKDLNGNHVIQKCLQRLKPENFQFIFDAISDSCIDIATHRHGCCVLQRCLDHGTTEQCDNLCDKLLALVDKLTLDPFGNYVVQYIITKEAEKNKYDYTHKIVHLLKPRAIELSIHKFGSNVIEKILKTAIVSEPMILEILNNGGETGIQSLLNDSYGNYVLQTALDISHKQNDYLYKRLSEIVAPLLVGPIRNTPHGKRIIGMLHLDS
Assay: EMSA; 25 C; quadratic fit; 20 mM HEPES-Na or HEPES-K pH 7.4, 2 mM MgCl2, 100 mM KOAc, 2 mM DTT, 0.2% Tween 20, 5% glycerol, 0.1 mg/ml BSA; 25 or 0 C; native 20% gel at 4-6 C
Settings: protein: recombinant; tags: C-terminal SNAP tag; N-terminal 6xHis removed by TEV; label: 5'-32P; single strand

{"binder": "AUGUGUAUAUUAGU (ssRNA) [Puf4_HO RNA]", "readout_units": "nM", "Kd": 0.12}
